test system: GM 16865; assay: Catalase import immunofluorescence (% importing cells); type: cell-based, human; details: GM 16865 (PEX26), at the lower dose leading to the maximum effect (see E22)
Counter-ions that a name gives are not always drawn.
Each entry below lists one item and its recorded Importing cells (%) value.
observationType: Importing cells (%)

molecule | studyTarget | observationType | reported
O=C(CCCCCCNC(=O)c1cnc(N(c2ccccc2)c2ccccc2)nc1)NO | GM 16865 | Importing cells (%) | 20
O=C(/C=C/c1cccc(S(=O)(=O)Nc2ccccc2)c1)NO | GM 16865 | Importing cells (%) | 35
CCN(CC)Cc1ccc2cc(COC(=O)Nc3ccc(C(=O)NO)cc3)ccc2c1 [Givinostat (hydrochloride monohydrate), Givinostat] | GM 16865 | Importing cells (%) | 20
O=C(CCCCCCC(=O)Nc1ccccc1)NO | GM 16865 | Importing cells (%) | 27
